Cited source for all entries: patent US11730746B2

# Experiment description: Bioavailability in rats
# Run conditions: rat, in vivo, 10 mg/kg
Parameter measured: Cmax

Compound	Result
C[C@]12CC[C@H](O)C[C@H]1CCC1C2CC[C@]2(C)[C@@H](c3c[nH]cn3)CC[C@]12O (stereo partly shown) [CVie 101]	1020 ng/mL

----------
# Experiment description: Bioavailability in rats
# Run conditions: rat, in vivo, 10 mg/kg
Parameter measured: AUC(0-inf) (ng·h/mL)

Compound	Parameter measured	Unit string	Numeric value
C[C@]12CC[C@H](O)C[C@H]1CCC1C2CC[C@]2(C)[C@@H](c3c[nH]cn3)CC[C@]12O (stereo partly shown)	AUC(0-inf)	ng·h/mL	2490
